Tested on: MES SA DX (human uterine sarcoma cell line with marked multidrug resistance)
Settings: read-out: IC50 MES SA DX
testReadout: pIC50
# log scale: pIC50 equals minus log10 of the concentration in mol/L

# count of solved cases: 2
INSERT INTO measurements (compound, systemtested, valuemeasured) VALUES
  ('COc1c2c(c(O)c3c4c(c(C)cc13)C1OC3(C5OCCCO5)OC1[C@@](OC)(O4)[C@@]31CO1)C(=O)CCC2 (stereo partly drawn) [Trx13]', 'MES SA DX (human uterine sarcoma cell line with marked multidrug resistance)', 9.38),
  ('COc1c2c(c(O)c3c4c(c(C)cc13)[C@@H]1O[C@@]3(C(OC)OC)O[C@@H]1[C@@](O[C@H]1C[C@@H](O)[C@@](O)(C(C)=O)[C@H](C)O1)(O4)[C@@]31CO1)C(=O)[C@@H](O)C[C@@H]2O[C@H]1C[C@@](C)(O)[C@H](OC(C)=O)[C@H](C)O1 [Trioxacarcin A]', 'MES SA DX (human uterine sarcoma cell line with marked multidrug resistance)', 6.69);

Q) Quote pIC50 reported for COc1c2c(c(O)c3c4c(c(C)cc13)C1OC3(C5OCCCO5)OC1[C@@](OCC=CCO[C@@]15Oc6c(c(C)cc7c(OC)c8c(c(O)c67)C(=O)CCC8)C6OC(C7OCCCO7)(OC61)[C@]51CO1)(O4)[C@@]31CO1)C(=O)CCC2 (stereo partly drawn) [Trx25] please.
A) 6.37

---

System: MES SA (human uterine sarcoma)
Settings: read-out: IC50 MES SA
Square brackets hold non-standard residues; d marks the D form. Peptide text beside a SMILES is read from it. * marks the point of attachment. Dolaproine = CO[C@@H]([C@@H]1CCCN1)[C@@H](C)C(=O)O; Dil = CC[C@H](C)[C@H](NC)[C@@H](CC(=O)O)OC; X1 = C[C@@H](N*)[C@@H](O)c1ccccc1; NMeV = CN[C@H](C(=O)O)C(C)C
testReadout: IC50 (nM)
Answer format: numeric, nM implied, no suffix.

INSERT INTO results (molecule, testreadout, valuemeasured) VALUES
  ('COc1c2c(c(O)c3c4c(c(C)cc13)[C@@H]1O[C@@]3(C(OC)OC)O[C@@H]1[C@@](O[C@H]1C[C@@H](O)[C@@](O)(C(C)=O)[C@H](C)O1)(O4)[C@@]31CO1)C(=O)[C@@H](O)C[C@@H]2O[C@H]1C[C@@](C)(O)[C@H](O)[C@H](C)O1 [Trioxacarcin D, reference compound]', 'IC50', 11.1);

Q) Quote IC50 reported for COc1c2c(c(O)c3c4c(c(C)cc13)C1OC3(C5OCCCO5)OC1[C@@](OC)(O4)[C@@]31CO1)C(=O)CCC2 (stereo partly drawn) please.
A) 0.56

Q) Quote IC50 reported for CC[C@H](C)[C@@H]([C@@H](CC(=O)N1CCC[C@H]1[C@H](OC)[C@@H](C)C(=O)N[C@H](C)[C@@H](O)c1ccccc1)OC)N(C)C(=O)[C@@H](NC(=O)[C@@H](NC)C(C)C)C(C)C [MMAE, monomethyl auristatin E, reference compound] (H-[NMeV]V[Dil][Dolaproine]-X1) please.
A) 0.06

Q) Quote IC50 reported for COc1c2c(c(O)c3c4c(c(C)cc13)C1OC3(C5OCCCO5)OC1[C@@](OCC=CCO[C@@]15Oc6c(c(C)cc7c(OC)c8c(c(O)c67)C(=O)CCC8)C6OC(C7OCCCO7)(OC61)[C@]51CO1)(O4)[C@@]31CO1)C(=O)CCC2 (stereo partly drawn) [Trx25] please.
A) 235

Q) Quote IC50 reported for COc1c2c(c(O)c3c4c(c(C)cc13)[C@@H]1O[C@@]3(C(OC)OC)O[C@@H]1[C@@](O[C@H]1C[C@@H](O)[C@@](O)(C(C)=O)[C@H](C)O1)(O4)[C@@]31CO1)C(=O)[C@@H](O)C[C@@H]2O[C@H]1C[C@@](C)(O)[C@H](OC(C)=O)[C@H](C)O1 please.
A) 0.74
